TARGET OF ASSAY: Anti-CD28 scFv (VH - linker 1 - VL) (biotinylated (site not stated))
Sequence (scFv, as listed by the source): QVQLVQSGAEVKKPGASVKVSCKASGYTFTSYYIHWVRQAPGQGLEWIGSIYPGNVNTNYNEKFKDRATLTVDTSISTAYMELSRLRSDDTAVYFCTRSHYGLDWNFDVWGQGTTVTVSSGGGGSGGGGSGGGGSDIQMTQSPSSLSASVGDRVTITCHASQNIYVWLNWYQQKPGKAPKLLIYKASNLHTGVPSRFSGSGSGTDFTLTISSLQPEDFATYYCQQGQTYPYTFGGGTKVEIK
EXPERIMENTAL PROTOCOL: clonal phage ELISA on captured anti-CD28 scFv, wells pre-incubated with soluble CD28 as competitor;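 also: crude phage supernatants used, bound phage read out via HRP-linked anti-M13 antibody, with comparison wells given blocking buffer lacking soluble CD28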
Field: CD28 scFv signal in presence of CD28. Provide a value for each of the binders that follow.
Give a plain numeric answer without units written out.

Problem: Provide only the value of recorded CD28 scFv signal in presence of CD28 for MDWCPRHLWYACFN (tested as crude clonal phage supernatant) [Phage-144]
Solution: 0.159

Problem: Read the entry MDWCPKFLWHECFS (tested as crude clonal phage supernatant; also called position 7 is F in the position column) [Phage-135] and write its reported CD28 scFv signal in presence of CD28.
Solution: 0.142

Problem: Answer with the recorded CD28 scFv signal in presence of CD28 of MHWCPIYLWDECFN (tested as crude clonal phage supernatant) [Phage-136] only.
Solution: 0.193

Problem: Determine from records and report CD28 scFv signal in presence of CD28 for MDWCPRYLWHMCYS (tested as crude clonal phage supernatant) [Phage-119]
Solution: 1.17

Problem: Annotate the binder MDWCPTYLWFECFN (tested as crude clonal phage supernatant) [Phage-132] with its measured CD28 scFv signal in presence of CD28.
Solution: 0.224

Problem: Tell me CD28 scFv signal in presence of CD28 reported for MDWCPRYLWDACFF (tested as crude clonal phage supernatant) [Phage-130]
Solution: 0.168

Problem: Fill in CD28 scFv signal in presence of CD28 for record MDWCPIHLWNECFA (tested as crude clonal phage supernatant) [Phage-123]
Solution: 0.203

Problem: Please give measured CD28 scFv signal in presence of CD28 of the following entry: MDWCPRPLWDMCFF (tested as crude clonal phage supernatant) [Phage-124]
Solution: 0.138

Problem: Return value of CD28 scFv signal in presence of CD28 for input MDWCPTNLWHECFA (tested as crude clonal phage supernatant) [Phage-138] , no commentary.
Solution: 0.096

Problem: Query CD28 scFv signal in presence of CD28 for MDWCPRDLWDQCYA (tested as crude clonal phage supernatant) [Phage-122]
Solution: 0.201

Problem: Report measured CD28 scFv signal in presence of CD28; entry is LDWCPLNLWDLCYF (tested as crude clonal phage supernatant) [Phage-143]
Solution: 0.095

Problem: Write down CD28 scFv signal in presence of CD28 measured for item MDWCPSYLWHECFA (tested as crude clonal phage supernatant) [Phage-134]
Solution: 0.198

Problem: Provide one value: measured CD28 scFv signal in presence of CD28 of MDWCPVILWDFCFN (tested as crude clonal phage supernatant; also called position 11 is F in the position column) [Phage-142]
Solution: 0.173

Problem: Report CD28 scFv signal in presence of CD28 for MDWCPRFLWDECFF (tested as crude clonal phage supernatant; also called position 7 is F in the position column) [Phage-133]
Solution: 0.246

Problem: Retrieve CD28 scFv signal in presence of CD28 measured for MDWCPMDLWDVCFN (tested as crude clonal phage supernatant) [Phage-140] and print it.
Solution: 0.263

Problem: Look up and report measured CD28 scFv signal in presence of CD28 for this entry: MDWCPRDLWIECFF (tested as crude clonal phage supernatant) [Phage-128]
Solution: 0.137

Problem: Complete the entry with CD28 scFv signal in presence of CD28 for MDWCPSYLWTVCFA (tested as crude clonal phage supernatant) [Phage-129]
Solution: 0.096

Problem: Return value of CD28 scFv signal in presence of CD28 for input MDWCPRHLWDECFF (tested as crude clonal phage supernatant) [Phage-118] , no commentary.
Solution: 0.663

Problem: Answer with the recorded CD28 scFv signal in presence of CD28 for the binder listed here: MDWCPRDLWHACFS (tested as crude clonal phage supernatant) [Phage-120]
Solution: 0.173

Problem: Let me know recorded CD28 scFv signal in presence of CD28 for MDWCPRSLWIYCFN (tested as crude clonal phage supernatant) [Phage-131] , thanks.
Solution: 0.401

Problem: Answer with the recorded CD28 scFv signal in presence of CD28 of MDWCPRALWNECFA (tested as crude clonal phage supernatant) [Phage-127] only.
Solution: 0.375

Problem: Write down CD28 scFv signal in presence of CD28 measured for item MDWCPVSLWHVCFY (tested as crude clonal phage supernatant) [Phage-125]
Solution: 0.409

Problem: Check the records and state CD28 scFv signal in presence of CD28 for MDWCPRFLWNECFN (tested as crude clonal phage supernatant) [Phage-126]
Solution: 0.503

Problem: Answer with reported CD28 scFv signal in presence of CD28 of MDWCPRSLWNVCFF (tested as crude clonal phage supernatant) [Phage-141]
Solution: 0.356

Problem: Provide only the value of recorded CD28 scFv signal in presence of CD28 for MDWCPRDLWDVCFA (tested as crude clonal phage supernatant) [Phage-139]
Solution: 0.28

Problem: Report CD28 scFv signal in presence of CD28 for MDWCPRYLWHECFH (tested as crude clonal phage supernatant) [Phage-137]
Solution: 0.308

Problem: Check the records and state CD28 scFv signal in presence of CD28 for MDWCPRDLWHVCFF (tested as crude clonal phage supernatant) [Phage-121]
Solution: 0.268
